Target: the molecule itself
Experiment: split reporter (BiFC, NanoBiT); split-GFP (NGFP and CGFP of salt-stable mGFP2) in Hfx. volcanii transformants, 24 h 37 °C then 24 h 30 °C; relative fluorescence (rf) against the wild type; the highest of eight tag combinations is given
experimental readout: relative fluorescence (rf)

1. GvpN fused to NGFP or CGFP (natural protein, Halobacterium salinarum, UniProt Q9HI16 1-347, looked up, GvpN of the p-vac region of Halobacterium salinarum; gvpN amplified from the p-vac region; GFP fragment at the N- or C-terminus, 14 or 16 aa linker; source: Hfx. volcanii WR340 transformant, split-GFP fusion in living cells) MTNESRKRKVRGSQIRSSRGDKKQGRSQSRDDKEIERLERQNDARGQESSTHVDEGFVPEEQSFIETESVNRVESRMERWLDVGRPVHLIGPTGCGKTSLAMHVARERDRPVVWINGDAELTTSDLVGEYAEKERISEHDQFIHNVVKSKDIIRDRWVDNPLTLAVQEGATLVYNEFSRTKPVANNVLLSVFEEGVLELPGKRGKSRYVDVHPEFRTILTSNSVEYAGVHEPQDALLDRLIGIYMDFYDLDTEIEIVRAHVDKSADTNVEDIVRVLRELRERLDITVGTRAAIMANEGATTVDTVDQAVLTDICTDVLASKVAQRSDVRGLREEIESAIDDMEVALS ... > 10 LAU/mm^2
2. GvpC fused to NGFP or CGFP (natural protein, Halobacterium salinarum, UniProt P24574 1-382, looked up, GvpC of the p-vac region of Halobacterium salinarum; gvpC amplified from the p-vac region; GFP fragment at the N- or C-terminus, 14 or 16 aa linker; source: Hfx. volcanii WR340 transformant, split-GFP fusion in living cells) MSVTDKRDEMSTARDKFAESQQEFESYADEFAADITAKQDDVSDLVDAITDFQAEMTNTTDAFHTYGDEFAAEVDHLRADIDAQRDVIREMQDAFEAYADIFATDIADKQDIGNLLAAIEALRTEMNSTHGAFEAYADDFAADVAALRDISDLVAAIDDFQEEFIAVQDAFDNYAGDFDAEIDQLHAAIADQHDSFDATADAFAEYRDEFYRIEVEALLEAINDFQQDIGDFRAEFETTEDAFVAFARDFYGHEITAEEGAAEAEAEPVEADADVEAEAEVSPDEAGGESAGTEEEETEPAEVETAAPEVEGSPADTADEAEDTEAEEETEEEAPEDMVQCRVCGEYYQAITEPHLQTHDMTIQEYRDEYGEDVPLRPDDKT ... 14.5 LAU/mm^2
3. GvpO fused to NGFP or CGFP (natural protein, Halobacterium salinarum, UniProt O51968 1-119, looked up, GvpO of the p-vac region of Halobacterium salinarum; gvpO amplified from the p-vac region; GFP fragment at the N- or C-terminus, 14 or 16 aa linker; source: Hfx. volcanii WR340 transformant, split-GFP fusion in living cells) MADPANDRSEREEGGEDDETPPASDGNPSPSANSFTLSNAQTRAREAAQDLLEHQFEGMIKAESNDEGWRTVVEVVERNAVPDTQDIIGRYEITLDGTGDVTGYELLERYRRGDMKEEL ... > 10 LAU/mm^2

The measured values listed here are drawn from paper PMC9372576.
